Each record here notes measured protein stability index.
B1: SMTNL2 (parent)
chain: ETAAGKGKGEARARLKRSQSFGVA

Variants of: B1
test-method-notes: protein stability index of a GFP-peptide fusion (GPS, HEK-293T) (PSI 1-6); higher = more stable;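 note: lentivirally expressed fusions sorted by FACS into six bins by GFP to DsRed ratio, PSI derived from sequencing read proportions per bin multiplied by bin number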
experimental-parameters: c terminus: a fixed tail appended
Give the figure by itself; no unit, no explanation.

[
  {
    "mutation-name": "A11Q",
    "protein stability index": 4.19
  },
  {
    "mutation-name": "A4C",
    "protein stability index": 4.46
  },
  {
    "mutation-name": "E10I",
    "protein stability index": 3.96
  }
]

// query Look up protein stability index: `G22S`
// result 5.13

// query Look up protein stability index: `E1A`
// result 3.91

// query Look up protein stability index: `G9Q`
// result 4.51

// query Look up protein stability index: `K8N`
// result 4.8

// query Look up protein stability index: `L15Q`
// result 4.91

// query Look up protein stability index: `G7A`
// result 4.28

// query Look up protein stability index: `G7N`
// result 4.02

// query Look up protein stability index: `S20L`
// result 4.02

// query Look up protein stability index: `K16E`
// result 4.57

// query Look up protein stability index: `R14C`
// result 4.53
